B1: TPR t1 (parent)
chain: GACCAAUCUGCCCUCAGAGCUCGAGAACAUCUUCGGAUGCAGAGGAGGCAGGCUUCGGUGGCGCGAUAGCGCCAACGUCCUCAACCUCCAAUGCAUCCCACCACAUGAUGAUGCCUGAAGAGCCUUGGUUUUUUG

variants of: B1; experiment: polymerase ribozyme fitness, log enrichment relative to wild type (log ratio); higher = more active; in vitro selection for triplet polymerase activity
Label rule, in plain words: polymerase ribozyme fitness (log ratio) of -3 and up is Met, under -3 is Not met.

Check if polymerase ribozyme fitness (log ratio) >= -3 (inclusive). Item: GACCAAUCUGCCCUCAGAGCUCGAGAACAUCUUCGGAUGCAGAGGAGUCAGGCUUGGGUGGCGCGAUAGCGACAACGUCCUCAACCUCCAAUGAAUCCCACCACAUGAUCAUGCCUGAAGAGCCUUGGUUUUUUG
Not met
